Let's go through some GI50 measurements on LNCaP cells together.
Numbers only, in µM.

Some solved cases for reference:
>>> value_observed("O=S(=O)(Nc1ccc(OC(F)(F)F)cc1)C1(c2ccccc2)CCNCC1")
23
>>> value_observed("Cc1cc(C2(NS(=O)(=O)c3ccc(OC(F)(F)F)cc3)CCNCC2)ccc1Cl")
6.76

For each of the items listed, what is its GI50?
1. CN(C)CC(c1ccc(Cl)c(Cl)c1)n1cc(-c2ccc(OC(F)(F)F)cc2)cn1 (centres unmarked)
2. CN(C)CC(NC(=O)c1ccc(OC(F)(F)F)cc1)c1ccc(Cl)c(Cl)c1 (centres unmarked)
3. O=S(=O)(NC(c1ccccc1)C1CCNCC1)c1ccc(OC(F)(F)F)cc1 (centres unmarked)
4. FC(F)(F)Oc1ccc(-c2cnn(C3(c4ccccc4)CCNC3)c2)cc1 (centres unmarked)

Result:
54.6
41.9
20.5
30.5

###

Test system: HCC1937 cells
Entries whose GI50 is below 70 µM take condition met; entries at or above 70 µM take condition not met.

// known answers, use as guide
>>> group_label("O=S(=O)(N[C@H](c1ccc(Cl)cn1)C1CCNCC1)c1ccc(OC(F)(F)F)cc1 [Example 15]")
"condition met"
>>> group_label("CC(C)Oc1ccc(S(=O)(=O)NC2(c3ccc(Cl)cn3)CCNCC2)cn1 [Example 5]")
"condition met"
>>> group_label("CC(C)Oc1ccc(S(=O)(=O)N[C@H](c2ccccc2)C2CCNCC2)cn1 [Example 19]")
"condition not met"
>>> group_label("O=S(=O)(N[C@@H](CN1CCNCC1)c1ccc(Cl)cc1)c1ccccc1 [Example 25]")
"condition met"
>>> group_label("CC(C)Oc1ccc(S(=O)(=O)NC(CN2CCNCC2)c2ccc(F)c(F)c2)cn1 (stereo not drawn) [Example 24]")
"condition met"

Query compound follows.
Q: Lab note: confirm whether the reported GI50 for this compound is below 70 µM, equality not counting. compound: CC(C)Oc1ccc(S(=O)(=O)N[C@@H](c2ccccc2)C2CCNCC2)cn1 [Example 18]
Result: condition not met

###

Assignment: determine reported GI50 for the given molecules.
Tested on: LNCaP cells
One number for each entry, in µM.

# batch: return GI50 for each of the 3 molecules below
1. O=S(=O)(NC1(c2cc(F)cc(F)c2)CCNCC1)c1ccc(OC(F)(F)F)cc1 [Example 2]
2. CC(C)Oc1ccc(S(=O)(=O)N[C@@H](c2ccc(Cl)cc2)C2CCNCC2)cn1 [Example 16]
3. CC(C)Oc1ccc(S(=O)(=O)NCC2(c3ccccc3)CC2(C)C)cn1 (stereo not drawn) [Example 29]

Result:
1. 15.5
2. 23.4
3. 78.7

###

For each record, write down the corresponding GI50.
Tested on: LNCaP cells
Numbers only, in µM.

>>> value_observed("CNc1cc(S(=O)(=O)NC2(c3ccc(Cl)cc3)CCNCC2)ccc1OC(F)(F)F")
25.2
>>> value_observed("CN(C)CC(NS(=O)(=O)c1ccc(Oc2cccc(C(F)(F)F)c2)cc1)c1ccc(Cl)c(Cl)c1 (centres unmarked)")
14.4
>>> value_observed("O=S(=O)(NC(CN1CCNCC1)c1ccc(F)cc1F)c1ccc(OC(F)(F)F)cc1 (centres unmarked)")
27.1
>>> value_observed("Nc1cc(S(=O)(=O)NC(CN2CCNCC2)c2ccc(Cl)cc2)ccc1OC(F)(F)F (centres unmarked)")
30.8
>>> value_observed("O=S(=O)(NC1(c2ccccc2)CCC2(CC2)NC1)c1ccc(OC(F)(F)F)cc1 (centres unmarked)")
57.5

Hi team, please reply with GI50 for each item in this list.
1. FC(F)(F)Oc1ccc(-c2cn(C3(c4ccc(Cl)cc4)CCNC3)cn2)cc1 (centres unmarked)
2. CC(C)Oc1ccc(S(=O)(=O)NC(c2cc(Cl)cc(Cl)c2)C2CCCCC2)cn1 (centres unmarked)
3. O=S(=O)(N[C@@H](c1ccccc1)C1CCNCC1)c1ccc(OC(F)(F)F)cc1

Result:
25.2
22.8
24.7
